Attribution: ChEMBL document CHEMBL1811865

Provide the reported EC50 of each item.
molecular target: Gamma-secretase; assay: Modulation of gamma-secretase activity in human H4 cells expressing APP695 assessed as increase in amyloid beta42 production after 20 to 24 hrs by liquid phase electrochemiluminescence assay; type: cell-based
Numbers only, in µM.

Use these answered entries as a reference point.
[
  {
    "COMPOUND": "CCCCCCCCn1c2ccc(Cl)cc2c2ccc(C(C)C(=O)NS(C)(=O)=O)cc21 (stereo unspecified)",
    "READOUT_UNITS": "µM",
    "EC50": 32
  },
  {
    "COMPOUND": "CCCCCCCCn1c2ccc(Cl)cc2c2ccc(CC)cc21",
    "READOUT_UNITS": "µM",
    "EC50": 50
  },
  {
    "COMPOUND": "CCCCCCCCn1c2ccccc2c2ccc(OCCP(=O)(OCC)OCC)cc21",
    "READOUT_UNITS": "µM",
    "EC50": 13
  },
  {
    "COMPOUND": "CCCCCCCCn1c2ccc(Cl)cc2c2ccc(C(C)CO)cc21 (stereo unspecified)",
    "READOUT_UNITS": "µM",
    "EC50": 21
  },
  {
    "COMPOUND": "CCCCCCCCn1c2ccc(Cl)cc2c2ccc(C(C)C(=O)OC)cc21 (stereo unspecified)",
    "READOUT_UNITS": "µM",
    "EC50": 15
  },
  {
    "COMPOUND": "CCCCCCCCn1c2ccc(Cl)cc2c2ccc(C(C)C(=O)OCC)cc21 (stereo unspecified)",
    "READOUT_UNITS": "µM",
    "EC50": 21
  },
  {
    "COMPOUND": "CCCCCCCCn1c2ccccc2c2ccc(OCC(O)C(F)(F)F)cc21 (stereo unspecified)",
    "READOUT_UNITS": "µM",
    "EC50": 12
  },
  {
    "COMPOUND": "CCCCCCCCn1c2ccccc2c2ccc(OCC(=O)OC(C)C)cc21",
    "READOUT_UNITS": "µM",
    "EC50": 49
  }
]

Which EC50 value belongs to CCCCCCCCn1c2ccccc2c2ccc(OCC(=O)OC(C)(C)C)cc21 ?
19
